Tested on: NCI-H226 lung
Experiment: NCI tumour cell line growth inhibition, 48 h; in the data active = GI50 below about 0.43 µM; inactive = the rest
Mark one answer only. Choices: true = active, false = inactive

Consider the worked cases shown below.
C=CC(=O)Nc1ccc(C(=O)/C=C/c2ccc(N(C)CCF)cc2)c(O)c1 :: false
CC[C@@]1(O)C(=O)OCc2c1cc1n(c2=O)Cc2c-1nc1cc(F)c(C)c3c1c2[C@@H](N)CC3 :: true
CC(=O)Nc1ccc(-c2cn(-c3cccc(C(=O)Nc4ccc(F)c(C(F)(F)F)c4)c3)nn2)cn1 :: false

Field: next compound
Request: Fill in: this test's call for `O=C(CCl)Nc1ccc(C(=O)/C=C/c2cc3ccccc3nc2Cl)cc1` is ___
Response: false

---

Tested on: OVCAR-5 ovarian
Test: NCI tumour cell line growth inhibition, 48 h
MEASURED PARAMETER: TGI (µM)
Hi! Could you send only the number? It should be in µM, unit omitted.

N#Cc1c(-c2ccc(F)cc2)nc(SCc2ccccc2)nc1N1CCNCC1 :: 27.6

Request: Which TGI value is on record for `C=CC(=O)Nc1ccc(C(=O)/C=C/c2ccc(N(C)CCF)cc2)c(O)c1` ?
Response: 4.3

---

System: IGROV1 ovarian
Experiment: NCI tumour cell line growth inhibition, 48 h
MEASURED PARAMETER: GI50

COc1ccc(N(C)c2cc(C#N)nc3ccccc23)cc1N :: < 10 nM
N#Cc1c(-c2ccc(F)cc2)nc(SCc2ccccc2)nc1N1CCNCC1 :: 14700 nM
C=CC(=O)Nc1ccc(C(=O)/C=C/c2ccc(N(C)CCF)cc2)c(O)c1 :: 2000 nM

Request: Which GI50 value is on record for `COc1cc2oc(-c3cccc(C(=O)Nc4cccc([N+](=O)[O-])c4)c3)cc(=O)c2c(OC)c1OC` ?
Response: 7990 nM

Request: Param item: `CC[C@@]1(O)C(=O)OCc2c1cc1n(c2=O)Cc2c-1nc1cc(F)c(C)c3c1c2[C@@H](N)CC3`
Response: 26.1 nM

---

Quick reference for TGI among some molecules
Test system: NCI-H23 lung
Assay: NCI tumour cell line growth inhibition, 48 h
Hi! Could you send only the number? It should be in µM, unit omitted.

C=CC(=O)Nc1ccc(C(=O)/C=C/c2ccc(N(C)CCF)cc2)c(O)c1 :: 3.99

// switching to the query molecule
Request: Which TGI value is on record for `CC(=O)Nc1ccc(-c2cn(-c3cccc(C(=O)Nc4ccc(F)c(C(F)(F)F)c4)c3)nn2)cn1` ?
Response: 28.8

---

System: ACHN renal
Assay: NCI tumour cell line growth inhibition, 48 h
Quick reference for TGI among some molecules
Hi! Could you send only the number? It should be in µM, unit omitted.

CC(=O)Nc1ccc(-c2cn(-c3cccc(C(=O)Nc4ccc(F)c(C(F)(F)F)c4)c3)nn2)cn1 :: 30.1
N#Cc1c(-c2ccc(F)cc2)nc(SCc2ccccc2)nc1N1CCNCC1 :: 27.5

// switching to the query molecule
Request: Reported TGI for ACHN renal, given `O=C(CCl)Nc1ccc(C(=O)/C=C/c2cc3ccccc3nc2Cl)cc1` ?
Response: 3.09

---

Tested on: NCI-H23 lung
Experiment: NCI tumour cell line growth inhibition, 48 h; in the data active means GI50 below about 0.43 µM; inactive means the rest
Mark one answer only. Choices: active, inactive

C=CC(=O)Nc1ccc(C(=O)/C=C/c2ccc(N(C)CCF)cc2)c(O)c1 :: inactive
N#Cc1c(-c2ccc(F)cc2)nc(SCc2ccccc2)nc1N1CCNCC1 :: inactive
COc1ccc(N(C)c2cc(C#N)nc3ccccc23)cc1N :: active
CC[C@@]1(O)C(=O)OCc2c1cc1n(c2=O)Cc2c-1nc1cc(F)c(C)c3c1c2[C@@H](N)CC3 :: active

Request: Fill in: this test's call for `CC(=O)Nc1ccc(-c2cn(-c3cccc(C(=O)Nc4ccc(F)c(C(F)(F)F)c4)c3)nn2)cn1` is ___
Response: inactive

---

System: DU-145 prostate
Assay: NCI tumour cell line growth inhibition, 48 h; in the data active = GI50 below about 0.43 µM; inactive = the rest
Mark one answer only. Choices: TRUE = active, FALSE = inactive

Request: Fill in: this test's call for `COc1cc2oc(-c3cccc(C(=O)Nc4cccc([N+](=O)[O-])c4)c3)cc(=O)c2c(OC)c1OC` is ___
Response: FALSE

Request: Param item: `COc1ccc(N(C)c2cc(C#N)nc3ccccc23)cc1N`
Response: TRUE

Request: Param item: `CC[C@@]1(O)C(=O)OCc2c1cc1n(c2=O)Cc2c-1nc1cc(F)c(C)c3c1c2[C@@H](N)CC3`
Response: TRUE

Request: Param item: `O=C(CCl)Nc1ccc(C(=O)/C=C/c2cc3ccccc3nc2Cl)cc1`
Response: FALSE

---

Tested on: MDA-MB-468 breast
Assay: NCI tumour cell line growth inhibition, 48 h
Quick reference for GI50 among some compounds

Field: example entries. Status: answers known.
COc1ccc(/C=C(/c2ccccc2)[N+](=O)[O-])cc1 :: 1.46 µM
O=c1oc2ccc(Br)cc2c(=O)n1-c1ccc(F)cc1F :: 2.09 µM
CC(=O)Nc1ccc(-c2cn(-c3cccc(C(=O)Nc4ccc(F)c(C(F)(F)F)c4)c3)nn2)cn1 :: 14.8 µM
COC[C@]12CC[C@@H](C)[C@H](C)[C@H]1C1=CC[C@@H]3[C@@]4(C)CCCNC(C)(C)[C@@H]4CC[C@@]3(C)[C@]1(C)CC2 :: 1.71 µM

Request: Which GI50 value is on record for `O=C(N/N=C/c1c(Cl)cccc1Cl)c1ccc(C(F)(F)F)nc1Nc1cccc(C(F)(F)F)c1` ?
Response: 0.52 µM

Request: Param item: `O=C(NCc1ccc(S(=O)(=O)c2cc(F)cc(F)c2)cc1)c1ccc2nccn2c1`
Response: 9.27 µM

---

Quick reference for TGI among some compounds
System: MDA-MB-468 breast
Experiment: NCI tumour cell line growth inhibition, 48 h
Hi! Could you send only the number? It should be in µM, unit omitted.

COC(=O)CCC1=C(CC(=O)OC)C(C)=N/C1=C\c1[nH]c(-c2ccc[nH]2)cc1OC :: 17
O=C(NO)c1ccc(CN(c2cnccn2)c2cnccn2)cc1 :: 28.4
O=C(Nc1ccc(Cl)c(Cl)c1)Nc1ccccc1O :: 33.6

// switching to the query compound
Request: Which TGI value is on record for `O=C(N/N=C/c1c(Cl)cccc1Cl)c1ccc(C(F)(F)F)nc1Nc1cccc(C(F)(F)F)c1` ?
Response: 3.62

---

Tested on: MDA-MB-468 breast
Test: NCI tumour cell line growth inhibition, 48 h
MEASURED PARAMETER: TGI

COc1c(O)c(O)cc2c1-c1ccc(OC)c(=O)cc1C(NC(C)=O)CC2 (stereo not drawn) :: > 100 µM
Cn1c(=O)c2c(ncn2CC(=O)Nc2ccc(-c3ccccc3)nn2)n(C)c1=O :: > 100 µM

Request: Which TGI value is on record for `CN1CCN(c2ccc(Nc3ncc4cc(C#N)c(=O)n(C5CCCC5)c4n3)cc2)CC1` ?
Response: > 100 µM
